- System: SK-MG-1 (Low Grade Glioma)
- METHOD_DESCRIPTION: combination Emax (second highest fraction inhibited in the dose matrix, 72 h); higher = more inhibition; extreme values may be limits of the assay
PROPERTY_LABEL: combination Emax
Give bare numbers.

Cc1c2c(nn1C)CSCc1cc(n(C)n1)CSc1cc(c3ccccc3c1)OCCCc1c(C(=O)O)n(C)c3c-2c(Cl)ccc13 [AZD5991] + Cc1cc2ncnn2cc1Nc1ncc2c(n1)n(C1CCOCC1)c(=O)n2C [AZD7648] (first compound max 1 µM, 7x7, partner max 10 µM)	0.374
C=CCn1c(=O)c2cnc(Nc3ccc(N4CCN(C)CC4)cc3)nc2n1-c1cccc(C(C)(C)O)n1 [AZD1775] + O=C(c1cc(Cc2n[nH]c(=O)c3ccccc23)ccc1F)N1CCN(C(=O)C2CC2)CC1 [Olaparib] (first compound max 1 µM, partner max 10 µM)	0.572
Cn1cnc2c(F)c(Nc3ccc(Br)cc3Cl)c(C(=O)NOCCO)cc21 [Selumetinib] + CC(C)n1c(=O)n(C)c2cnc3cc(F)c(-c4ccc(OCCCN5CCCCC5)nc4)cc3c21 [AZD1390] (first compound max 10 µM, 7x7, partner max 0.3 µM)	0.185

Look at each molecule and report its combination Emax.
1. CC1(C)CCC(CN2CCN(c3ccc(C(=O)NS(=O)(=O)c4ccc(NCC5CCOCC5)c([N+](=O)[O-])c4)c(Oc4cnc5[nH]ccc5c4)c3)CC2)=C(c2ccc(Cl)cc2)C1 [Venetoclax] + C[C@@H](Nc1cc(F)cc(F)c1)c1cc(C(=O)N(C)C)cc2c(=O)cc(N3CCOCC3)oc12 [AZD8186] (first compound max 1 µM, 7x7, partner max 3 µM)
2. CN(CCO)CC[C@H](CSc1ccccc1)Nc1ccc(S(=O)(=O)NC(=O)c2ccc(N3CCC([C@@H](O)c4ccccc4-c4ccc(Cl)cc4)CC3)cc2)cc1S(=O)(=O)C(F)(F)F [AZD4320] + Cc1cc2ncnn2cc1Nc1ncc2c(n1)n(C1CCOCC1)c(=O)n2C [AZD7648] (first compound max 1 µM, 7x7, partner max 10 µM)

1. 0.387
2. 0.295

Item CC(=O)Nc1cccc(-n2c(=O)n(C3CC3)c(=O)c3c(Nc4ccc(I)cc4F)n(C)c(=O)c(C)c32)c1 [Trametinib] + Cc1nc(-c2cn3c(n2)-c2ccc(-c4cnn(C(C)(C)C(N)=O)c4)cc2OCC3)n(C(C)C)n1 [Taselisib] (first compound max 1 µM, 7x7, partner max 10 µM) was tested on SK-MG-1 (Low Grade Glioma); the reported combination Emax is 0.85

----------
- Test system: CCK-81 (Colorectal Carcinoma);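 also: after 72 h of two-drug dosing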
- METHOD_DESCRIPTION: Bliss excess, mean over the matrix (fraction); higher = more synergy
PROPERTY_LABEL: Bliss excess
Answers are plain numbers.

CN(CCO)CC[C@H](CSc1ccccc1)Nc1ccc(S(=O)(=O)NC(=O)c2ccc(N3CCC([C@@H](O)c4ccccc4-c4ccc(Cl)cc4)CC3)cc2)cc1S(=O)(=O)C(F)(F)F [AZD4320] + C1CN(CCC1(C(=O)N[C@@H](CCO)C2=CC=C(C=C2)Cl)N)C3=NC=NC4=C3C=CN4 [Capivasertib] (first compound max 1 µM, 7x7, partner max 3 µM)	-0.0258
C=CCn1c(=O)c2cnc(Nc3ccc(N4CCN(C)CC4)cc3)nc2n1-c1cccc(C(C)(C)O)n1 [AZD1775] + CCc1c2c(nc3ccc(O)cc13)-c1cc3c(c(=O)n1C2)COC(=O)[C@]3(O)CC [SN-38] (first compound max 1 µM, partner max 0.3 µM)	-0.0839

Shifting focus to the molecule that follows.
Documented Bliss excess of CN(CCO)CC[C@H](CSc1ccccc1)Nc1ccc(S(=O)(=O)NC(=O)c2ccc(N3CCC([C@@H](O)c4ccccc4-c4ccc(Cl)cc4)CC3)cc2)cc1S(=O)(=O)C(F)(F)F [AZD4320] + C[C@@H](Nc1cc(F)cc(F)c1)c1cc(C(=O)N(C)C)cc2c(=O)cc(N3CCOCC3)oc12 [AZD8186] (first compound max 1 µM, 7x7, partner max 3 µM) : 0.0755

src = the supplement of paper PMC11061612
